Just for reference, PubChem BioAssay AID624417 is where these values come from.

biological target: Glucagon-like peptide 1 receptor (Homo sapiens) (UniProt P43220); assay: qHTS of GLP-1 Receptor Inverse Agonists (Inhibition Mode); conditions: HEK293 GLP-1R CRE-luciferase, luminescence, 24 h, GLP-1R form is constitutively active; series mostly up to 38.3 µM; further: nearly all actives have a fitted effect of over 55% in size
Sequence (P43220 whole entry, looked up): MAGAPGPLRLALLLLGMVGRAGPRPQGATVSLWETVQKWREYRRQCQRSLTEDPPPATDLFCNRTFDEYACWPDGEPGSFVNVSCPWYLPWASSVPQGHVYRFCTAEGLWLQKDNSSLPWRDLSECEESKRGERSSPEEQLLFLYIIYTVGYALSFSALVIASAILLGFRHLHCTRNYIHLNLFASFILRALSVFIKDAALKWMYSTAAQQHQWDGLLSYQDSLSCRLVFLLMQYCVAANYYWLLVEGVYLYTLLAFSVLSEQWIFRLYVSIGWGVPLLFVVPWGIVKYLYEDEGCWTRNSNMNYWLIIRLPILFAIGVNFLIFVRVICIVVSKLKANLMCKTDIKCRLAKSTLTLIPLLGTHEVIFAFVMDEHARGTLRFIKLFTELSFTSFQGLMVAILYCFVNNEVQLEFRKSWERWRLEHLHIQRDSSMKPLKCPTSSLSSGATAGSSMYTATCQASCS
Screen size: about 410,000 compounds; about 6,400 (1.6%) were called active. Inconclusive results (about 20%) are left out. For the sample, actives were picked, then their nearest neighbours and some compounds at random.
Quantity Name: outcome

> print(dat)
                                 cpd.smiles  quantity.name    result
1  Cc1ccc(CNC(=O)CSc2c3c(nc4cc(Cl)ccc24)CCCC3)cc1        outcome  inactive
2  OC[C@@H]1CN(Cc2ccc3c(c2)OCO3)C[C@H](n2cnc3c(NCc4ccco4)ncnc32)O1        outcome  inactive
3       Cc1ccc(NC(=O)COC(=O)CN2CCSC2=O)cc1F        outcome  inactive
